- Tested on: normal embryonic kidney (HEK-293) cells
- method: MTT cytotoxicity assay, HEK-293
- Assay type: cell-based, human
- experimentalParameters: Homo sapiens, HEK293, normal cell, 48 h, means of three independent experiments
Documented IC50 across a set of compounds
quantityName: IC50 (µM)

compound=NS(=O)(=O)c1cccc(N/N=N/c2ccc(C(=O)O)cc2)c1 quantityname=IC50 rel=> observed=300
compound=COc1ccc(/N=N/Nc2cccc(S(N)(=O)=O)c2)cc1OC quantityname=IC50 rel=> observed=300
compound=COc1ccc(/N=N/Nc2cccc(S(N)(=O)=O)c2)cc1 quantityname=IC50 rel== observed=146
compound="O=c1[nH]cc(F)c(=O)[nH]1 [Compound 5-FU, 5-Fluorouracil, reference compound]" quantityname=IC50 rel== observed=65.3
compound=NS(=O)(=O)c1cccc(N/N=N/c2ccc(F)cc2)c1 quantityname=IC50 rel== observed=132
compound=Cc1cc(C)cc(NN=Nc2cccc(S(N)(=O)=O)c2)c1 quantityname=IC50 rel== observed=103
